- Experiment Description: Half life in dog at 10 mg/kg, iv administered as single dose
- Type: ADME, organism-based, Canis lupus familiaris
- Condition Notes: in vivo
Reported Metric: half-life
Record the result as number plus unit.

Look at this compound and give its reported half-life. O[C@H](C[C@H]1c2c(F)cccc2-c2cncn21)[C@H]1CC[C@H](O)CC1
4.8 h

###

- Experiment Description: Stability in human microsomes assessed as parent compound remaining after 90 mins in presence of phase 1 and 2 metabolic cofactors
- Format: ADME, Microsome
- Condition Notes: read-out: Stability
Reported Metric: remaining at […]

Any idea what its remaining at […] is? The compound is O[C@H](C[C@H]1c2c(F)cccc2-c2cncn21)[C@H]1CC[C@H](O)CC1 [NAVOXIMOD]
> 85%

These data points were gathered from ChEMBL document CHEMBL4364294.
